# credit: patent US20260193366A1

Consider the following binders and their measured Relative Inhibition of IL-13 induced pSTAT6 IC50 readings.
Target: T1, hIL-4Rα on cells (human, UniProt P24394 26-825)
T1 sequence: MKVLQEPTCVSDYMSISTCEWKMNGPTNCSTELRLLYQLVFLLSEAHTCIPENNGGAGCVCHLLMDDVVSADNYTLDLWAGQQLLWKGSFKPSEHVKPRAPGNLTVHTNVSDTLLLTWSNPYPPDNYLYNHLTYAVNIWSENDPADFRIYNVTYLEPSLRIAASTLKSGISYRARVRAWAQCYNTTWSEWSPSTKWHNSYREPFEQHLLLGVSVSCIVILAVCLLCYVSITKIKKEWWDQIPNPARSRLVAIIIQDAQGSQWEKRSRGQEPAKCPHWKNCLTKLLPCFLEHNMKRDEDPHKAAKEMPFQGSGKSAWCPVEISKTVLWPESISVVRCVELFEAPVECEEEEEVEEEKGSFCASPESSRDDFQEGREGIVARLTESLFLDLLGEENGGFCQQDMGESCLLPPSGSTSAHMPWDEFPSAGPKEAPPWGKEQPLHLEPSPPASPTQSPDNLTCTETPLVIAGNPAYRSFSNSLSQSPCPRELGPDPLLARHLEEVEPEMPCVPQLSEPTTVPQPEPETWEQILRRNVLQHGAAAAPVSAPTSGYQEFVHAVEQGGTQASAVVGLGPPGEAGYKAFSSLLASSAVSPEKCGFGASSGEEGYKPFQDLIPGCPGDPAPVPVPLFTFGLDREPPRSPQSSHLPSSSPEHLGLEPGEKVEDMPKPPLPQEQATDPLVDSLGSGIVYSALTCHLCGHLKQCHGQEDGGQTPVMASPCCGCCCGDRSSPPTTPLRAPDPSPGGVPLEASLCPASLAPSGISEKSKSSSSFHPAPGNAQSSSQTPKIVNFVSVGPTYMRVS
Assay: cell-based or functional assay

Binder	Reported
Construct 41 (mAb478) (antibody, IgG4, V domains shown, VH/VL only) VH: EVQLVESGGGLEQPGGSLRLSCAGSGFTFRDFAMTWVRQAPGKGLEWVSSISGGGGNTYYADSVKGRFTISRDNSKNTLYLQMNSLRAEDTAVYYCAKDRVSITIRPRYYGLDVWGQGTTVTVSS VL: DIVMTQSPLSLPVTPGEPASISCTASQSLLYSIGYNYVDWYLQKSGQSPQLLIYLGNKRASGVPDRFSGSGSGTDFTLKISRVEAEDVGFYYCMQAYNSPYTFGQGTKLEIK	1.97 relative to dupilumab

// below: Relative Inhibition of IL-13 induced pSTAT6 IC50 requested for another binder
# query: Relative Inhibition of IL-13 induced pSTAT6 IC50 of entry Construct 45 (mAb494) (antibody, IgG4, V domains shown, VH/VL only) VH: EVQLVESGGGLEQPGGSLRLSCAGSGFTFRDFAMTWVRQAPGKGLEWVSSISGSGDGTYYADSVKGRFTISRDNSKNTLYLQMNSLRAEDTAVYYCAKDRVSITIRPRYYGLDVWGQGTTVTVSS VL: DIVMTQSPLSLPVTPGEPASISCTASQSLLYSIGYNYVDWYLQKSGQSPQLLIYLGNNRATGVPDRFSGSGSGTDFTLKISRVEAEDVGFYYCMQSLQTPYTFGQGTKLEIK
4.61 relative to dupilumab
